target system: Solute carrier family 12 member 5 (Homo sapiens, UniProt Q9H2X9)
Sequence (Q9H2X9 whole entry): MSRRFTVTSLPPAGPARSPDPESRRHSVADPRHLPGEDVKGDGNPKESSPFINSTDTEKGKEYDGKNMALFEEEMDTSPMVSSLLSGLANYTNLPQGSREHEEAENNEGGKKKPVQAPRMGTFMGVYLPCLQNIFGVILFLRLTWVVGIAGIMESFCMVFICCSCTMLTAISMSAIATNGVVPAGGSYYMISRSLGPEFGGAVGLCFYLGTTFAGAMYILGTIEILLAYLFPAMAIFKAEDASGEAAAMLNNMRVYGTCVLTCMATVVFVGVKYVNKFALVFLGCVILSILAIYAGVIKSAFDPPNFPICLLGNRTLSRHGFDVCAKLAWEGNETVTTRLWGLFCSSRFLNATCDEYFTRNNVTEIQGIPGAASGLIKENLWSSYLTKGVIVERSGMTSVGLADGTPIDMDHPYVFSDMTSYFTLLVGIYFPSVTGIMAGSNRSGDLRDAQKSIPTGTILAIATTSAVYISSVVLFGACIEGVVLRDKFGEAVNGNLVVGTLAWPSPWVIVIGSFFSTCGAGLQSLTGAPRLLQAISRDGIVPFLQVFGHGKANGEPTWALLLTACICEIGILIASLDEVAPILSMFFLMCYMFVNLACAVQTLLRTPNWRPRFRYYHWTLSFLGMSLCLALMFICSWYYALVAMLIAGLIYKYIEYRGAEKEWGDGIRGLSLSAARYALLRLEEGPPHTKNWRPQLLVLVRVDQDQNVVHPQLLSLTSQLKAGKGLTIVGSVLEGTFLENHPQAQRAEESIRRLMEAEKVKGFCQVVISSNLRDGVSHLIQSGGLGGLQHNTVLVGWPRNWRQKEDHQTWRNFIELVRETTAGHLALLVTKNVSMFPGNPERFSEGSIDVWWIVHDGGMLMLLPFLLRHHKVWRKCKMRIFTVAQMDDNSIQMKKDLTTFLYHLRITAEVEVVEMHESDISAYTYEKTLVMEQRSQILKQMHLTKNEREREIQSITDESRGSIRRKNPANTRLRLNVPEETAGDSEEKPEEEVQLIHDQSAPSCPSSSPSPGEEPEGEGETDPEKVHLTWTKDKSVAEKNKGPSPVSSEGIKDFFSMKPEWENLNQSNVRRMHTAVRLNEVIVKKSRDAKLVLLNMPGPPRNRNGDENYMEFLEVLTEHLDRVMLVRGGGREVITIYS
experimental protocol: concentration-response of KCC2 transport modulators – cell-based, HEK293 KCC2, FluoZin-2 fluorescence, dose response (AID 1736)
pEC50: −log10 of the molar value.
// reported pEC50 for each item listed
metric name: pEC50

CC(C)N1C(=O)S/C(=C/c2ccccc2OCc2ccc(C(=O)O)cc2)C1=O : 5.83
CNc1ccc2oc(C[C@H]3O[C@@]4(CC[C@H]3C)O[C@H]([C@H](C)C(=O)c3ccc[nH]3)[C@H](C)C[C@H]4C)nc2c1C(=O)O [MLS001056783] : 4.95
Cc1c(N=C2Nc3cccc4cccc2c34)c(=O)n(-c2ccccc2)n1C : 5.83
CNc1ccc(/C=C(\CCC(=O)O)c2nc3ccccc3s2)cc1[N+](=O)[O-] [MLS000394200] : 4.61
O=C(NCc1cccnc1)c1ccc(COc2ccc(Cl)cc2Cl)o1 : 3.18
O=C(Cn1nnc2c(cnn2-c2ccccc2)c1=O)N1CCN(c2ccccc2F)CC1 : 3.83
Cc1cccc(NC2=NN=C(c3ccccc3F)CS2)c1C : 4.55
O=C(CSc1nnnn1-c1ccc(Cl)cc1)N1CCc2ccccc2C1 : 5.39
CC1Cc2ccccc2N1C(=O)c1ccc(N2CCCC2)c([N+](=O)[O-])c1 (stereo unspecified) : 6.11
O=S1(=O)N=C(N2CCN(Cc3ccccc3)CC2)c2ccccc21 : 5.17
Cc1nc(SCc2ccc(F)cc2)c([N+](=O)[O-])[nH]1 [SMR000271028] : 5.20
N#Cc1ccccc1NC(=O)CSc1nccn1CCc1ccccc1 [MLS000051858] : 5.49
O=C(C1CCN(S(=O)(=O)c2cccc3nsnc23)CC1)N1CCc2ccccc2C1 : 4.16
Cc1[nH]c2ccccc2c1SCC(=O)N1CCN(c2ccccc2)CC1 : 5.37
S=C(NCCc1ccccc1)NN=Cc1cccc(Cl)c1Cl : 4.32
O=C(CC(Cc1ccccc1)c1ccco1)NC1CCCCC1 (stereo unspecified) [MLS000556612] : 3.67
COC(=O)c1sccc1NC(=S)OC : 5.75
Cc1ccc(NC(=O)c2ccccc2NS(=O)(=O)c2ccc(Cl)s2)cc1 : 5.93
Cc1c(C(=O)NCCSCc2ccc(F)cc2)cnn1-c1ccc(Cl)cc1 : 5.21
O=C(CSc1ccc(-c2ccccc2)nn1)Nc1ccc2c(c1)OCCO2 [MLS000724887] : 5.46
Sc1nnc(C2(c3ccccc3)CCCC2)o1 : 5.48

---

// reported EC50 for each item listed
target system: Solute carrier family 12 member 5 (Homo sapiens, UniProt Q9H2X9)
experimental protocol: concentration-response of KCC2 transport modulators – cell-based, HEK293 KCC2, FluoZin-2 fluorescence, dose response (AID 1736)
metric name: EC50 (µM)

S=C(NCc1cccnc1)Nc1ccc(Oc2ccccc2)cc1 : 8.45
CSCCC(=O)N1CCCC(CNC(=O)c2ccc(-c3ccccc3)cc2)C1 (stereo unspecified) : 7.78
O=[N+]([O-])c1cc(-n2c(O)c3c(c2O)CCCC3)ccc1NC1CCN(Cc2ccccc2)CC1 : 221
O=C(O)CC/C(=C\c1ccccc1[N+](=O)[O-])c1nc2ccccc2s1 : 500
O=C(NC1CCCC1)C(c1ccncc1)N(Cc1ccco1)C(=O)c1ccc(-c2ccccc2)[nH]1 (stereo unspecified) : 19.2
CCc1ccc(C(=O)COC(=O)c2cc([N+](=O)[O-])ccc2NCCO)cc1 : 17.2
